- Tested on: Bel-7402
- assay procedure: Cytotoxicity against human Bel7402 cells by MTT assay
- Assay type: functional, cell-based
IC50 by entry:

{"compound": "CC(=O)/C=C/c1cc(O)c(O)c(Br)c1Br", "IC50": "> 10 µg/mL"}
{"compound": "COC(=O)C(Cc1cc(O)c(O)c(Br)c1Br)c1cc(O)c(OC)c(Br)c1 (stereo unspecified)", "IC50": "> 10 µg/mL"}
{"compound": "COC(=O)Cc1cc(O)c(OC)c(Br)c1", "IC50": "> 10 µg/mL"}
{"compound": "COc1c(O)cc(C(Cc2cc(O)c(O)c(Br)c2Br)C(=O)O)cc1Br (stereo unspecified)", "IC50": "> 10 µg/mL"}
{"compound": "C[S+]([O-])Cc1cc(O)c(O)c(Br)c1Br (stereo unspecified)", "IC50": "> 10 µg/mL"}

Q: May I ask what IC50 has been recorded for COc1c(O)cc(C(=O)O)cc1Br ?
Result: > 10 µg/mL
